pIC50 reference
- experimental-system: hT2R8 (Homo sapiens (Human))
- Sequence (Q9NYW2 whole entry): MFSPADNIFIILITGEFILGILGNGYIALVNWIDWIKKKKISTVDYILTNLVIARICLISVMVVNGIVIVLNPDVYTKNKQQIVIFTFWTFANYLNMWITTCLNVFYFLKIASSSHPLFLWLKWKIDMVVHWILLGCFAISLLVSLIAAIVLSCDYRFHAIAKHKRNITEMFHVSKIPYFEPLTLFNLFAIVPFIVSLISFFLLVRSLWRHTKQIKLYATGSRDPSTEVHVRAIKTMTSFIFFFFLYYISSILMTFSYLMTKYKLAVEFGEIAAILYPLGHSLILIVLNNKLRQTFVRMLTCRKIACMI
- experimental-details: hT2R8 antagonist high-throughput FLIPR assay, stable cell line with G16g44, agonist andrographolide
- Assay type: cell-based
- settings: table after Example 10-97; read-out: hT2R8 IC50
Scale: pIC50 equals -log10([C]), with [C] in mol/L.

Ask: For the compound shown here, Cc1noc(C)c1Cn1cc(N2C(=O)CN(CCc3cccc(Cl)c3)C2=O)cn1 , give the reported pIC50.
Reply: 6.01

Ask: What value of pIC50 has been reported for the following compound? Cc1noc(C)c1Cn1cc(N2C(=O)NC(CC3CCCCC3)C2=O)cn1 (stereo not shown)
Reply: 6.02

Ask: Would you kindly share the measured pIC50 for Cc1noc(C)c1Cn1cc(N2C(=O)CN(CCc3ccccc3Cl)C2=O)cn1 ?
Reply: 6.61

Ask: Entry COc1cccc(CNC(=O)CC2NC(=O)N(c3cnn(Cc4c(C)noc4C)c3)C2=O)c1 (stereo not shown) has what pIC50?
Reply: 5.75

Ask: Given the compound Cc1noc(C)c1Cn1cc(N2C(=O)NC(C)C2=O)cn1 (stereo not shown) , what is its reported pIC50?
Reply: 5.89

New cases:
Ask: Name the reported pIC50 value associated with the compound Cc1noc(C)c1Cn1cc(N2C(=O)CN(Cc3cccc(C(=O)O)c3)C2=O)cn1
Reply: 5.75

Ask: Suppose we examine the compound Cc1noc(C)c1Cn1cc(-n2c(=O)[nH]c(=O)n(Cc3ccccc3)c2=O)cn1 ; what pIC50 value has been reported?
Reply: 5.81

Ask: Which pIC50 is reported for this compound? Cc1noc(C)c1Cn1cc(N2C(=O)CN(Cc3cccc(C#N)c3)C2=O)cn1
Reply: 6.00

Ask: // returns reported pIC50 for input Cc1noc(C)c1Cn1cc(N2C(=O)CN(Cc3cccc(CO)n3)C2=O)cn1
Reply: 6.14

----------
- experimental-system: hT2R3 (Homo sapiens (Human))
- Sequence (Q9NYW6 whole entry): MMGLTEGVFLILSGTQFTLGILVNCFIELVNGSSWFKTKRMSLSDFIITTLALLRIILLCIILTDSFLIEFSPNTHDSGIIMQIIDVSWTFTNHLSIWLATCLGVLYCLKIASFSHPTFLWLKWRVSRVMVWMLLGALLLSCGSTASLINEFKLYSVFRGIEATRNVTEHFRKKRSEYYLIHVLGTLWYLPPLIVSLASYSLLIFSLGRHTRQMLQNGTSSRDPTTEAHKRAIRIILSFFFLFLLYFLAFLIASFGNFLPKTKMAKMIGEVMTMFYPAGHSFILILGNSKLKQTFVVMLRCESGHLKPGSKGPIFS
- experimental-details: hT2R panel inhibition, transient HEK293 G16g44, agonist Chloroquine pH6.5 50 μM
- Format: cell-based
- settings: HEK293, compound at 25 μM; receptor activated to EC80 with the corresponding agonist; read-out: screening result against bitter receptor 3
endpoint-label: inhibition at 25 µM

Below: 5 compounds and their reported inhibition at 25 µM.
Ask: Value lookup for inhibition at 25 µM; key = O=C(O)c1ccc(S(=O)(=O)N(Cc2ccccc2)Cc2cccc(F)c2)cc1 [Example 5-79]
Reply: 40 to 60%

Ask: Name the recorded inhibition at 25 µM for COc1ccc(CN(CCc2ccccc2)S(=O)(=O)c2ccc(C(=O)O)cc2)cc1 [Example 5-19] .
Reply: 20 to 40%

Ask: Name the reported inhibition at 25 µM value associated with the compound COc1ccc(CN(Cc2ccc(F)c(OC)c2)S(=O)(=O)c2ccc(C(=O)O)cc2)cc1 [Example 5-50]
Reply: 40 to 60%

Ask: I'd like to know its inhibition at 25 µM. The compound in question is COc1ccc(CN(Cc2ccccc2Cl)S(=O)(=O)c2ccc(C(=O)O)cc2)cc1 [Example 5-68]
Reply: 20 to 40%

Ask: Please look up its inhibition at 25 µM: N#Cc1ccc(CN(Cc2ccccc2)S(=O)(=O)c2ccc(C(=O)O)cc2)cc1 [Example 5-91]
Reply: 60 to 80%

Others:
Ask: Form field: reported inhibition at 25 µM of N#Cc1ccccc1CN(Cc1ccccc1)S(=O)(=O)c1ccc(C(=O)O)cc1 [Example 5-92]
Reply: 20 to 40%

Ask: Consider the compound O=C(O)C1CCC(CN(Cc2ccc(F)cc2)S(=O)(=O)c2cccs2)CC1 (centres unmarked) [Example 5-51] and give its measured inhibition at 25 µM.
Reply: 40 to 60%

Ask: Requested field: inhibition at 25 µM. Item: O=C(O)c1ccc(CN(Cc2ccccc2F)S(=O)(=O)c2ccccc2)cc1 [Example 5-103]
Reply: 40 to 60%

----------
- experimental-system: hT2R8 (Homo sapiens (Human))
- experimental-details: hT2R8 antagonist high-throughput FLIPR assay, stable cell line with G16g44, agonist andrographolide
- Format: cell-based
- settings: read-out: IC50 on hT2R8 bitter receptor
endpoint-label: IC50 (µM)
Field: numeric (µM). Do not append units.

Ask: I am curious: what IC50 value has been reported for COc1cccc(CC2NC(=O)N(c3cnn(Cc4c(C)noc4C)c3)C2=O)c1 (centres unmarked) [Example 10-56] ?
Reply: 0.13

Ask: Fill blank: measured IC50 of the molecule COCc1cccc(CN2C(=O)N(c3cnn(Cc4c(C)noc4C)c3)C(=O)C2(C)C)c1 [Example 12-35] is ____.
Reply: 0.13

Ask: Could you share which IC50 value was measured for Cc1noc(C)c1Cn1cc(N2C(=O)CN(CCc3cccc4ccccc34)C2=O)cn1 [Example 10-80] ?
Reply: 1.27

Ask: What value of IC50 has been recorded for this entry: COc1cccc(C(=O)Nc2nnn(Cc3c(C)noc3C)n2)c1 [Example 10-39]
Reply: 1.87

Ask: Any idea what IC50 was measured for COc1ccc(CCN2CC(=O)N(c3cnn(Cc4c(C)noc4C)c3)C2=O)cc1OC [Example 10-87] ?
Reply: 0.26

Further cases:
Ask: Please look up its IC50: Cc1noc(C)c1Cn1cc(NC(=O)c2ccc[nH]2)cn1 [Example 4-13]
Reply: 0.57

Ask: Report IC50 for Cc1noc(C)c1Cn1cc(N2C(=O)CN(CCc3ccc(O)cc3)C2=O)cn1 [Example 10-86] please.
Reply: 0.41

Ask: I have this molecule here, COc1cc(C(=O)Nc2cnn(Cc3c(C)noc3C)c2)cc(O)c1O [Example 4-73] , and I need its recorded IC50.
Reply: 2.2

----------
- experimental-system: hT2R64 (Homo sapiens (Human), UniProt P59538)
- Sequence (P59538 whole entry): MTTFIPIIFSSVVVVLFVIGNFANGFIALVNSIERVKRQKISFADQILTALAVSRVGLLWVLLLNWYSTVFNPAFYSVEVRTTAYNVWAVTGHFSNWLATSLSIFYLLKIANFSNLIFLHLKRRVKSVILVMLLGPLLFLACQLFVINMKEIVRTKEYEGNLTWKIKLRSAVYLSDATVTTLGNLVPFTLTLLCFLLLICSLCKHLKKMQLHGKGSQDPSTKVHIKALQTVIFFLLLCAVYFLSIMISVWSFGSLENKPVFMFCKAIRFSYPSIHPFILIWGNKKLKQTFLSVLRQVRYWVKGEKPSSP
- experimental-details: hT2R panel inhibition, transient HEK293 G16g44, agonist Aristolochic Acid 1 μM
- Format: cell-based
- settings: HEK293, compound at 25 μM; receptor activated to EC80 with the corresponding agonist; read-out: screening result against bitter receptor 64
endpoint-label: inhibition at 25 µM

Ask: I have this compound here, COc1ccc(N(Cc2ccccc2)S(=O)(=O)c2ccc(C(=O)O)cc2)cc1 [Example 5-35] , and I need its recorded inhibition at 25 µM.
Reply: 20 to 40%

Ask: Could you tell me which inhibition at 25 µM is on file for COc1cccc(CN(Cc2ccccc2)S(=O)(=O)c2ccc(C(=O)O)cc2)c1 [Example 5-74] ?
Reply: 20 to 40%

Ask: Return reported inhibition at 25 µM; argument: COc1ccc(CN(Cc2ccc(F)c(OC)c2)S(=O)(=O)c2ccc(C(=O)O)cc2)cc1 [Example 5-50]
Reply: 60 to 80%

Ask: Item COc1ccc(CN(Cc2ccc(NC(C)=O)cc2)S(=O)(=O)c2ccc(C(=O)O)cc2)cc1 [Example 5-26] has what recorded inhibition at 25 µM?
Reply: 60 to 80%

Ask: Consider the compound COc1ccc(CN(Cc2ccccc2Cl)S(=O)(=O)c2ccc(C(=O)O)cc2)cc1 [Example 5-68] and give its measured inhibition at 25 µM.
Reply: 60 to 80%

Turning now to a further record.
Ask: // returns reported inhibition at 25 µM for input COc1cccc(CN(Cc2ccc(C(=O)O)cc2)S(=O)(=O)c2ccc(O)cc2)c1 [Example 5-43]
Reply: 60 to 80%

----------
- experimental-system: hT2R8 (Homo sapiens (Human))
- experimental-details: hT2R8 antagonist high-throughput FLIPR assay, stable cell line with G16g44, agonist andrographolide
- Type: cell-based
- settings: read-out: IC50 on hT2R8 bitter receptor
pIC50: −log10 of the molar value.
// label = Yes if pIC50 is not less than 7, otherwise No

Ask: Hello, I need to know if Cc1noc(C)c1Cn1cc(N2C(=O)NC(Cc3ccc(O)c(O)c3)C2=O)cn1 (centres unmarked) [Example 10-60] has measured pIC50 not below 7. Thanks!
Reply: No

Ask: Evaluate COc1cc(O)cc(CN2C(=O)N(c3cnn(Cc4c(C)noc4C)c3)C(=O)C2(C)C)c1 [Example 12-17] : pIC50 at minimum 7?
Reply: Yes

Ask: Is the recorded value of pIC50 equal to or greater than 7 for this compound? Cc1noc(C)c1Cn1cc(NC(=O)CC2CCCCC2)cn1 [Example 4-14]
Reply: No

Ask: Kindly determine if pIC50 recorded for Cc1noc(C)c1Cn1cc(NC(=O)c2ccccn2)cn1 [Example 4-1] is above or exactly 7.
Reply: No

Ask: Dear colleague, could you confirm whether Cc1noc(C)c1Cn1cc(N2C(=O)[C@H](CO)N(Cc3cccc(O)c3)C2=O)cn1 [Example 12-9] has pIC50 at or above 7?
Reply: Yes

Ask: Reported pIC50 reaches at least 7 for COc1cc(CN2C(=O)N(c3cnn(Cc4c(C)noc4C)c3)C(=O)C2(C)C)cc(OC)c1 [Example 12-18] ?
Reply: No

New cases:
Ask: Quick check: does Cc1noc(C)c1Cn1cc(N2C(=O)CN(CCc3ccc(F)cc3)C2=O)cn1 [Example 10-84] have pIC50 greater than or equal to 7?
Reply: Yes

Ask: Threshold query (pIC50 >= 7) on Cc1noc(C)c1Cn1cc(N2C(=O)CN(CCc3cccc(F)c3)C2=O)cn1 [Example 10-77]
Reply: Yes
